The measurements presented in this section are drawn from patent US20190315823A1.

Tested on: LPS-stimulated human peripheral blood mononuclear cells (IL1-β)
Assay type: cell-based
Conditions: Table 12; cells stimulated with 10 ng/ml LPS; LPS alone 1313 (HH2 derivatives), 1927 (1018 derivatives), 2455 (1002 and hybrid peptides) pg/ml
Ends that are not written are not given here.
Each entry falls in a class defined on IL1β Production; the bands are bin 1 = under 200 pg/mL, bin 2 = from 200 pg/mL up to 1000 pg/mL, bin 3 = 1000 pg/mL and over

substance: 1002-I5: single substituted 1002 peptide (VQRWIIVWRIRK-NH2) [Peptide 1002-I5]
target entity: LPS-stimulated human peripheral blood mononuclear cells (IL1-β)
class: bin 1

substance: 1002-Q9: single substituted 1002 peptide (VQRWLIVWQIRK-NH2) [Peptide 1002-Q9]
target entity: LPS-stimulated human peripheral blood mononuclear cells (IL1-β)
class: bin 1

substance: HH2-K10: single substituted HH2 peptide (VQLRIRVAVKRA-NH2)
target entity: LPS-stimulated human peripheral blood mononuclear cells (IL1-β)
class: bin 3

substance: 1002-I7: single substituted 1002 peptide (VQRWLIIWRIRK-NH2) [Peptide 1002-I7]
target entity: LPS-stimulated human peripheral blood mononuclear cells (IL1-β)
class: bin 1

substance: 1018-W6: single substituted 1018 peptide (VRLIVWVRIWRR-NH2) [Peptide 1018-W6]
target entity: LPS-stimulated human peripheral blood mononuclear cells (IL1-β)
class: bin 2

substance: HH2-R2: single substituted HH2 peptide (VRLRIRVAVIRA-NH2)
target entity: LPS-stimulated human peripheral blood mononuclear cells (IL1-β)
class: bin 3

substance: 1002-R5: single substituted 1002 peptide (VQRWRIVWRIRK-NH2) [Peptide 1002-R5]
target entity: LPS-stimulated human peripheral blood mononuclear cells (IL1-β)
class: bin 2

substance: HH2-R7: single substituted HH2 peptide (VQLRIRRAVIRA-NH2)
target entity: LPS-stimulated human peripheral blood mononuclear cells (IL1-β)
class: bin 3

substance: HH2-K9: single substituted HH2 peptide (VQLRIRVAKIRA-NH2)
target entity: LPS-stimulated human peripheral blood mononuclear cells (IL1-β)
class: bin 3

substance: HH2-R10: single substituted HH2 peptide (VQLRIRVAVRRA-NH2)
target entity: LPS-stimulated human peripheral blood mononuclear cells (IL1-β)
class: bin 3

substance: 1018-L8: single substituted 1018 peptide (VRLIVAVLIWRR-NH2) [Peptide 1018-L8]
target entity: LPS-stimulated human peripheral blood mononuclear cells (IL1-β)
class: bin 2

substance: 1002-W6: single substituted 1002 peptide (VQRWLWVWRIRK-NH2) [Peptide 1002-W6]
target entity: LPS-stimulated human peripheral blood mononuclear cells (IL1-β)
class: bin 1

substance: 1018-I7: single substituted 1018 peptide (VRLIVAIRIWRR-NH2) [Peptide 1018-I7]
target entity: LPS-stimulated human peripheral blood mononuclear cells (IL1-β)
class: bin 1

substance: HH2-G8: single substituted HH2 peptide (VQLRIRVGVIRA-NH2)
target entity: LPS-stimulated human peripheral blood mononuclear cells (IL1-β)
class: bin 3

substance: HH2-K5: single substituted HH2 peptide (VQLRKRVAVIRA-NH2)
target entity: LPS-stimulated human peripheral blood mononuclear cells (IL1-β)
class: bin 3

substance: 1018-I2: single substituted 1018 peptide (VILIVAVRIWRR-NH2) [Peptide 1018-I2]
target entity: LPS-stimulated human peripheral blood mononuclear cells (IL1-β)
class: bin 2

substance: 1018-L9: single substituted 1018 peptide (VRLIVAVRLWRR-NH2) [Peptide 1018-L9]
target entity: LPS-stimulated human peripheral blood mononuclear cells (IL1-β)
class: bin 1

substance: HH2-L1: single substituted HH2 peptide (LQLRIRVAVIRA-NH2)
target entity: LPS-stimulated human peripheral blood mononuclear cells (IL1-β)
class: bin 3

substance: HH2-L10: single substituted HH2 peptide (VQLRIRVAVLRA-NH2)
target entity: LPS-stimulated human peripheral blood mononuclear cells (IL1-β)
class: bin 3

substance: HH2-G9: single substituted HH2 peptide (VQLRIRVAGIRA-NH2)
target entity: LPS-stimulated human peripheral blood mononuclear cells (IL1-β)
class: bin 3

substance: 1002-K4: single substituted 1002 peptide (VQRKLIVWRIRK-NH2) [Peptide 1002-K4]
target entity: LPS-stimulated human peripheral blood mononuclear cells (IL1-β)
class: bin 3

substance: HH2-K2: single substituted HH2 peptide (VKLRIRVAVIRA-NH2)
target entity: LPS-stimulated human peripheral blood mononuclear cells (IL1-β)
class: bin 2

substance: 1018-K8: single substituted 1018 peptide (VRLIVAVKIWRR-NH2) [Peptide 1018-K8]
target entity: LPS-stimulated human peripheral blood mononuclear cells (IL1-β)
class: bin 2

substance: 1002-Q11: single substituted 1002 peptide (VQRWLIVWRIQK-NH2) [Peptide 1002-Q11]
target entity: LPS-stimulated human peripheral blood mononuclear cells (IL1-β)
class: bin 1

substance: HH2-V12: single substituted HH2 peptide (VQLRIRVAVIRV-NH2)
target entity: LPS-stimulated human peripheral blood mononuclear cells (IL1-β)
class: bin 3

substance: HH2-Q10: single substituted HH2 peptide (VQLRIRVAVQRA-NH2)
target entity: LPS-stimulated human peripheral blood mononuclear cells (IL1-β)
class: bin 3

substance: HH2-K8: single substituted HH2 peptide (VQLRIRVKVIRA-NH2)
target entity: LPS-stimulated human peripheral blood mononuclear cells (IL1-β)
class: bin 2

substance: 1018-W3: single substituted 1018 peptide (VRWIVAVRIWRR-NH2) [Peptide 1018-W3]
target entity: LPS-stimulated human peripheral blood mononuclear cells (IL1-β)
class: bin 1

substance: 1002-R2: single substituted 1002 peptide (VRRWLIVWRIRK-NH2) [Peptide 1002-R2]
target entity: LPS-stimulated human peripheral blood mononuclear cells (IL1-β)
class: bin 1

substance: 1002-K3: single substituted 1002 peptide (VQKWLIVWRIRK-NH2) [Peptide 1002-K3]
target entity: LPS-stimulated human peripheral blood mononuclear cells (IL1-β)
class: bin 1

substance: HH2-L8: single substituted HH2 peptide (VQLRIRVLVIRA-NH2)
target entity: LPS-stimulated human peripheral blood mononuclear cells (IL1-β)
class: bin 2

substance: HH2-L5: single substituted HH2 peptide (VQLRLRVAVIRA-NH2)
target entity: LPS-stimulated human peripheral blood mononuclear cells (IL1-β)
class: bin 3
